- protocol details: Single intravenous dose escalation of P5P, plasma pharmacokinetics (Examples Two and Three)
- Format: in vivo, human
- condition set: both sexes, human, plasma, iv, 5 mg/kg, Group 2, P5P 5 mg/kg single iv; plasma PA; mean; read-out: T½ (converted)
- Protocol: A phase one clinical trial was conducted to compare the pharmacokinetics of intravenously administered P5P and orally administered P5P. The trial was a single dose escalation study. […] P5P, pyridoxal, and 4-pyridoxic acid were evaluated in both plasma and urine over a 24 hour interval following either intravenous or oral dosing. […] Concentrations of pyridoxal-5′-phosphate (P5P) were measured from the plasma samples collected over a 24-bour interval after dosing in each phase. […]
reported endpoint: half-life

molecule | measured value
Cc1ncc(CO)c(C(=O)O)c1O [PA, 4-pyridoxic acid] | 2.12 h
